target: IGF receptors (Homo sapiens, UniProt P08069); assay: competition binding of refolded IGF fusion proteins to IGF receptors against radioactive wild type IGF; settings: Ni eluates refolded 3 hours at room temperature, read-out: approximate binding constants (KDs)
Sequence (P08069 31-736 limits assumed): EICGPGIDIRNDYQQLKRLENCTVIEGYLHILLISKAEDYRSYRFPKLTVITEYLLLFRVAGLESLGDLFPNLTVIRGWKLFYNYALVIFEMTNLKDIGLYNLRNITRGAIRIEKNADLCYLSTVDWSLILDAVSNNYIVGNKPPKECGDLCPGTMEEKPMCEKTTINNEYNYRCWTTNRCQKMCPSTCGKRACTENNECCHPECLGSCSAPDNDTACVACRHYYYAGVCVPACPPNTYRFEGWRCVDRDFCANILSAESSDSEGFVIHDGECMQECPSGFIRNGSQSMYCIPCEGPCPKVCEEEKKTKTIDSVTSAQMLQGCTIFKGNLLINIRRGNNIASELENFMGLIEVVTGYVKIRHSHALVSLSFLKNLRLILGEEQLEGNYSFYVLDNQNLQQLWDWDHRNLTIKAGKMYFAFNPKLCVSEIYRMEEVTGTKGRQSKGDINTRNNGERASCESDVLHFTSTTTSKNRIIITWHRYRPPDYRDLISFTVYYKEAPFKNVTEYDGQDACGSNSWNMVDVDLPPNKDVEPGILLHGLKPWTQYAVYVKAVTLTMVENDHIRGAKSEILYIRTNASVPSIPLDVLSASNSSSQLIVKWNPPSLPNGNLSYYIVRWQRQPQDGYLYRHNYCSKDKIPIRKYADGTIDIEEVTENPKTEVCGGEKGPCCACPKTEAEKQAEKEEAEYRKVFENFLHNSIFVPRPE
Sequence (P08069 741-1367 partner limits assumed): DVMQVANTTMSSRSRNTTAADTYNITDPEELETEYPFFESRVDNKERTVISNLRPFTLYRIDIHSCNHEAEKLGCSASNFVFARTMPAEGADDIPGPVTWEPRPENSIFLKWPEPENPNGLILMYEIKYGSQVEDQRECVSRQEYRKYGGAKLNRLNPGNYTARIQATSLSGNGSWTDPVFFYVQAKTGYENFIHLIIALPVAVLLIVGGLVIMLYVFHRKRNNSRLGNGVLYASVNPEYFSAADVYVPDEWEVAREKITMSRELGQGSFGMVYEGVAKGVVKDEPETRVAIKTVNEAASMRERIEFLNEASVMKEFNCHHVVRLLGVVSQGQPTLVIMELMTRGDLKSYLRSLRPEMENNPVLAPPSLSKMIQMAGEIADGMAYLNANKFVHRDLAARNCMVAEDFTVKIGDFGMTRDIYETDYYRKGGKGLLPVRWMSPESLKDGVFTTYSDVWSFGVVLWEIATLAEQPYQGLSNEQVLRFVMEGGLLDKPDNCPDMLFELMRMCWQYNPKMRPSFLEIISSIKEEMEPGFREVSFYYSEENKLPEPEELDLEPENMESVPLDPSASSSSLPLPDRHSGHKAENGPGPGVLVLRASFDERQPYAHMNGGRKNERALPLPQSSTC
VALUE TYPE: Kd

Input line: Which Kd value belongs to 785IGF: mutTrx-IGF132 fusion protein, SEQ ID NO: 16 (protein) MVKQIESKTAFQEALDAAGDKLVVVDFSATWCGHCKMIKPFFHSLSEKYSNVIFLEVDVDDSQDVASESEVKSMPTFQFFKKGQKVGEFSGANKEKLEATINELVGSKSGHHHHHHSAKGFVNQHLCGSHLVEALYLVCGDRGFYFNKPTGYGSSSRRAPQTGIVDECCFRSCDLRRLEMYCAPLKPAKSA ?
Output line: ~40 nM

Input line: Which Kd value belongs to 764IGF: His6-K5-IGF132 fusion protein, SEQ ID NO: 18 (protein) MVKGKHHHHHHNGKGKSKFVNQHLCGSHLVEALYLVCGDRGFYFNKPTGYGSSSRRAPQTGIVDECCFRSCDLRRLEMYCAPLKPAKSA ?
Output line: ~100 nM

Input line: Which Kd value belongs to 403IGF: His6-IGF fusion protein, SEQ ID NO: 14 (protein) MTSGHHHHHHSAGVNGFVNQHLCGSHLVEALYLVCGDRGFYFNKPTGYGSSSRRAPQTGIVDECCFRSCDLRRLEMYCAPLKPAKSA ?
Output line: ~2 nM

Input line: Which Kd value belongs to LR3IGF: commercial Long-R3-IGF variant of IGF-1 (Sigma Aldrich), SEQ ID NO:5 (protein) MFPAMPLSSLFVNGPRTLCGALVDALQFVCGDRGFYFNKPTGYGSSSRRAPQTGIVDECCFRSCDLRRLEMYCAPLKPAKSEA ?
Output line: ~1 nM
